Tested on: MCF7
protocol_summary: Cytotoxicity against human MCF7 cells after 48 hrs by MTT assay
Format: functional, cell-based
experimental_conditions: MCF7, 48 h
Would you mind telling me the reported IC50 of each entry?

[[record]]
compound_structure = "COc1ccc(C(=O)Cc2cc(OC)c3c(c2)OC(C)(C)CC3=O)cc1"
result = "8.5 µM"

[[record]]
compound_structure = "COc1ccc(C(=O)Cc2cc(O)c3c(c2)OCC(C)=CC3=O)cc1"
result = "> 10 µM"

[[record]]
compound_structure = "COc1ccc(C(=O)Cc2cc(O)c(C(=O)CCC(C)C)c(O)c2)cc1"
result = "> 10 µM"

[[record]]
compound_structure = "CC(=O)Oc1cc(CC(=O)c2ccccc2)cc2oc(C(C)C)cc(=O)c12"
result = "> 10 µM"

[[record]]
compound_structure = "COc1ccc(C(=O)Cc2cc(O)c3c(c2)OC(C)(C)CC3=O)cc1"
result = "> 10 µM"


Alright, here's another compound for you.
**Q:** Give measured IC50 for OCCc1c(O)cc(/C=C/c2cc(O)cc(O)c2)cc1O (MCF7).
**A:** 6.4 µM

###

System: A549
protocol_summary: Cytotoxicity against human A549 cells after 48 hrs by MTT assay
Type: functional, cell-based
experimental_conditions: A549, 48 h
pIC50: −log10 of the molar value.
I'd be grateful if you could share measured pIC50 for these entries.

Example entries and their recorded answers appear below.
[[record]]
compound_structure = "COc1ccc(C(=O)Cc2cc(O)c(C(=O)CCC(C)C)c(O)c2)cc1"
result = "< 5.00"

[[record]]
compound_structure = "CC(C)c1cc(=O)c2c(O)cc(CC(=O)c3ccccc3)cc2o1"
result = "< 5.00"


Now for the molecule whose pIC50 we want.
**Q:** For the molecule COc1ccc(C(=O)Cc2cc(O)c3c(c2)OC(C)(C)CC3=O)cc1 , report pIC50.
**A:** < 5.00

All figures here come from ChEMBL document CHEMBL2429863.
